Cited source for all entries: patent US20240124444A1

Below, each entry is listed with its recorded inhibition at 10 µM.
# Tested on: C. parvum strain UGA1
# TEST NAME: C. parvum growth inhibition assay (Nluc luminescence in HCT-8 cells)
# Format: cell-based, Cryptosporidium parvum
# DETAILS: Cryptosporidium parvum, HCT-8; single point inhibition @ 10 uM; read-out: % inh @ 10 uM C. parvum
MEASURED QUANTITY: inhibition at 10 µM

compound="COc1nccc(-c2cc3cnc(NC(=O)c4cnn(C5CCCC5)c4)cc3[nH]2)n1 [Example 183]" study_system="C. parvum strain UGA1" reported_measurement="67 to 100%"
compound="Cc1cc(-c2cc3cnc(N(C)C(=O)C4CC4)cc3[nH]2)ccn1 [Example 86]" study_system="C. parvum strain UGA1" reported_measurement="0 to 33%"
compound="Cc1cc(-c2cc3cnc(NC(=O)C4CC4)cc3n2CCO)ccn1 [Example 93]" study_system="C. parvum strain UGA1" reported_measurement="0 to 33%"
compound="CC(=O)Nc1cc2[nH]c(-c3ccncc3)cc2cn1 [Example 181]" study_system="C. parvum strain UGA1" reported_measurement="67 to 100%"
compound="Cc1nn(C)cc1C(=O)Nc1cc2[nH]c(-c3ccnc(OC(C)C(F)(F)F)n3)cc2cn1 (stereo in doubt) [Example 136]" study_system="C. parvum strain UGA1" reported_measurement="67 to 100%"
compound="Cn1c(-c2ccncc2)cc2cnc(Nc3cnn(C4CCOCC4)c3)cc21 [Example 138]" study_system="C. parvum strain UGA1" reported_measurement="67 to 100%"
compound="Cc1cc(-c2cc3cnc(N)cc3[nH]2)ccn1 [Example 81]" study_system="C. parvum strain UGA1" reported_measurement="33 to 66%"
compound="O=C(Nc1cc2[nH]c(-c3ccncc3)cc2cn1)C1CCCC1 [Example 137]" study_system="C. parvum strain UGA1" reported_measurement="67 to 100%"
compound="Cn1cc(C(=O)Nc2cc3[nH]c(-c4cnc[nH]4)cc3cn2)cn1 [Example 82]" study_system="C. parvum strain UGA1" reported_measurement="33 to 66%"

----------
# Test system: C. parvum strain UGA1
# TEST NAME: C. parvum growth inhibition assay (Nluc luminescence in HCT-8 cells)
# Type: cell-based, Cryptosporidium parvum
# DETAILS: Cryptosporidium parvum, HCT-8; single point inhibition @ 1 uM; read-out: % inh @ 1 uM C. parvum
Below, each entry is listed with its recorded inhibition at 1 µM.
MEASURED QUANTITY: inhibition at 1 µM

compound="Cn1c(-c2ccnc(NCC(F)(F)F)n2)cc2cnc(N[C@H]3CCCOC3)cc21 (racemic) [Example 36]" reported_measurement="33 to 66%"
compound="CC(=O)Nc1cc2[nH]c(-c3ccncc3)cc2cn1 [Example 181]" reported_measurement="0 to 33%"
compound="Cn1cc(C(=O)Nc2cc3[nH]c(-c4ccnc(O[C@H]5CC[C@H](O)CC5)n4)cc3cn2)cn1 [Example 85]" reported_measurement="67 to 100%"
compound="COc1nccc(-c2cc3cnc(NC(=O)CC4COC4)cc3n2C)n1 [Example 87]" reported_measurement="33 to 66%"

----------
# Tested on: C. parvum strain UGA1
# TEST NAME: C. parvum growth inhibition assay (Nluc luminescence in HCT-8 cells)
# Format: cell-based, Cryptosporidium parvum
# DETAILS: Cryptosporidium parvum, HCT-8; single point inhibition @ 1 uM; read-out: % inh @ 1 uM C. parvum
Below, each entry is listed with its recorded inhibition at 1 µM.
MEASURED QUANTITY: inhibition at 1 µM

compound="Cn1cc(C(=O)Nc2cc3c(cn2)cc(-c2ccnc(NCC(F)F)n2)n3C)cn1 [Example 144]" study_system="C. parvum strain UGA1" measured_quantity="inhibition at 1 µM" reported_measurement="0 to 33%"
compound="CNC(=O)c1ccc(Nc2cc3[nH]c(-c4ccnc(C)c4)cc3cn2)cc1 [Example 190]" study_system="C. parvum strain UGA1" measured_quantity="inhibition at 1 µM" reported_measurement="0 to 33%"
compound="Cc1cc(-c2cc3cnc(NC(=O)C4CC4)cc3n2C)ccn1 [Example 83]" study_system="C. parvum strain UGA1" measured_quantity="inhibition at 1 µM" reported_measurement="0 to 33%"
compound="Cc1cc(-c2cc3cnc(Nc4cccc(-c5nc[nH]n5)c4)cc3[nH]2)cc(N)n1 [Example 150]" study_system="C. parvum strain UGA1" measured_quantity="inhibition at 1 µM" reported_measurement="0 to 33%"
compound="O=C(Nc1cc2[nH]c(-c3ccncc3)cc2cn1)C1CCCC1 [Example 137]" study_system="C. parvum strain UGA1" measured_quantity="inhibition at 1 µM" reported_measurement="0 to 33%"
compound="COc1nccc(-c2cc3cnc(NC(=O)C4C5CCCC54)cc3[nH]2)n1 (stereo not drawn) [Example 176]" study_system="C. parvum strain UGA1" measured_quantity="inhibition at 1 µM" reported_measurement="0 to 33%"
compound="Cc1cc(-c2cc3cnc(N[C@H]4CCCOC4)cc3[nH]2)ccn1 [Example 22]" study_system="C. parvum strain UGA1" measured_quantity="inhibition at 1 µM" reported_measurement="33 to 66%"
compound="Cc1cc(-c2cc3cnc(N)cc3[nH]2)ccn1 [Example 81]" study_system="C. parvum strain UGA1" measured_quantity="inhibition at 1 µM" reported_measurement="0 to 33%"
compound="Cc1cc(-c2cc3cnc(NC(=O)C4CCCO4)cc3[nH]2)ccn1 (stereo in doubt) [Example 182]" study_system="C. parvum strain UGA1" measured_quantity="inhibition at 1 µM" reported_measurement="0 to 33%"
compound="CC(C)n1cc(C(=O)Nc2cc3[nH]c(-c4ccnc(OC(C)C(F)(F)F)n4)cc3cn2)cn1 (stereo not drawn) [Example 149]" study_system="C. parvum strain UGA1" measured_quantity="inhibition at 1 µM" reported_measurement="0 to 33%"
compound="COCCn1cc(Nc2cc3[nH]c(-c4ccncc4)cc3cn2)cn1 [Example 192]" study_system="C. parvum strain UGA1" measured_quantity="inhibition at 1 µM" reported_measurement="33 to 66%"
compound="Cc1cc(-c2cc3cnc(NC(=O)OC4CCCC4)cc3[nH]2)ccn1 [Example 170]" study_system="C. parvum strain UGA1" measured_quantity="inhibition at 1 µM" reported_measurement="0 to 33%"
compound="CC(C)n1cc(C(=O)Nc2cc3c(cn2)cc(-c2ccnc(NCC(F)F)n2)n3C)cn1 [Example 169]" study_system="C. parvum strain UGA1" measured_quantity="inhibition at 1 µM" reported_measurement="0 to 33%"
compound="Cn1ncc2ccc(Nc3cc4[nH]c(-c5ccncc5)cc4cn3)cc21 [Example 195]" study_system="C. parvum strain UGA1" measured_quantity="inhibition at 1 µM" reported_measurement="67 to 100%"
compound="N#Cc1cc(-c2cc3cnc(Nc4cccc(C5CCOCC5)c4)cc3[nH]2)ccn1 [Example 54]" study_system="C. parvum strain UGA1" measured_quantity="inhibition at 1 µM" reported_measurement="0 to 33%"

----------
# Test system: C. parvum strain UGA1
# TEST NAME: C. parvum growth inhibition assay (Nluc luminescence in HCT-8 cells)
# Type: cell-based, Cryptosporidium parvum
# DETAILS: Cryptosporidium parvum, HCT-8; single point inhibition at 1 uM; read-out: % inh @ 1 uM C. parvum
Below, each entry is listed with its recorded inhibition at 1 µM.
MEASURED QUANTITY: inhibition at 1 µM

compound="CCOc1nccc(-c2cc3cnc(NC(=O)c4cnn(C)c4)cc3n2CC(C)C)n1 [Example 316]" measured_quantity="inhibition at 1 µM" reported_measurement="0 to 33%"
compound="FC1(F)CC(c2cc3cnc(NC4CCOCC4)cc3[nH]2)C1 [Example 397]" measured_quantity="inhibition at 1 µM" reported_measurement="33 to 66%"
compound="Cn1cc(C(=O)Nc2cc3c(cn2)cc(-c2ccnc(C(F)(F)F)n2)n3C)cn1 [Example 200]" measured_quantity="inhibition at 1 µM" reported_measurement="33 to 66%"

----------
# Tested on: C. parvum strain UGA1
# TEST NAME: C. parvum growth inhibition assay (Nluc luminescence in HCT-8 cells)
# Type: cell-based, Cryptosporidium parvum
# DETAILS: Cryptosporidium parvum, HCT-8; single point inhibition @ 10 uM; read-out: % inh @ 10 uM C. parvum
Below, each entry is listed with its recorded inhibition at 10 µM.
MEASURED QUANTITY: inhibition at 10 µM

compound="CCOc1nccc(-c2cc3cnc(NC(=O)C4C5CCCC54)cc3[nH]2)n1 (stereo not drawn)" reported_measurement="67 to 100%"
compound=Cc1cc(-c2cc3cnc(NC(=O)[C@H]4C[C@H](O)C4)cc3[nH]2)ccn1 reported_measurement="67 to 100%"
compound=O=C(Nc1cc2[nH]c(C3CCOCC3)cc2cn1)C1CC1 reported_measurement="0 to 33%"
compound=Cn1cc(C(=O)Nc2cc3[nH]c(CCCO)cc3cn2)cn1 reported_measurement="0 to 33%"
compound=Cc1cc(-c2cc3cnc(N[C@H]4CCCOC4)cc3[nH]2)ccn1 reported_measurement="67 to 100%"
compound="CCOc1nccc(-c2cc3cnc(NC(=O)C4C5CCCCC54)cc3[nH]2)n1 (stereo not drawn)" reported_measurement="67 to 100%"
compound=Cc1cc(-c2cc3cnc(Nc4cccc(-c5nc[nH]n5)c4)cc3[nH]2)ccn1 reported_measurement="67 to 100%"
compound=Cn1cc(C(=O)Nc2cc3c(cn2)cc(-c2ccnc(NCCC(F)(F)F)n2)n3C)cn1 reported_measurement="67 to 100%"
compound=COC(=O)Nc1cc2[nH]c(-c3ccnc(C)c3)cc2cn1 reported_measurement="67 to 100%"
